- Tested on: Fibroblast
- Assay method text: Multiplex assay against human fibroblast
- Assay type: toxicity, cell-based
- Experimental setup: 12 h, 1 µM, compound concentration 1 uM, replicate 2
// reported Population Fragmented Nuclei (%) per item
Property: Population Fragmented Nuclei (%)

INSERT INTO results (molecule, property, result_number) VALUES
  ('COc1c(C)cc(NC(=O)c2nn(Cc3ccc(F)cc3)c3c2CN(C(=O)c2ccc[nH]2)C[C@]3(C)C(N)=O)cc1C', 'Population Fragmented Nuclei (%)', 16),
  ('C[C@H]1[C@H]2CC[C@H]3[C@@H]4CC=C5C[C@@H](N(C)C)CC[C@]5(C)[C@H]4CC[C@]23CN1C [CONESSINE]', 'Population Fragmented Nuclei (%)', 33),
  ('CC[C@H]1OC(=O)[C@H](C)[C@@H](O[C@H]2C[C@@](C)(OC)[C@@H](O)[C@H](C)O2)[C@H](C)[C@@H](O[C@@H]2O[C@H](C)C[C@H](N(C)C)[C@H]2O)[C@@]2(C)CC(C)=C(O2)[C@H](C)[C@@H](O)[C@]1(C)O', 'Population Fragmented Nuclei (%)', 23),
  ('CSc1ccccc1N1CCN(CCCCCC(=O)NC2CCCc3ccccc32)CC1.Cl (stereo not given)', 'Population Fragmented Nuclei (%)', 32),
  ('N[C@@]1(C(=O)O)CO[C@H]2[C@H](C(=O)O)[C@H]21 [LY-379268]', 'Population Fragmented Nuclei (%)', 33),
  ('CCOc1c2c(c(OCC)c3ncccc13)CN(c1ccc(CS(=O)(=O)NC(=O)Cc3ccccc3OC)cc1C)C2=O', 'Population Fragmented Nuclei (%)', 37),
  ('O=C(NCCO)c1cccc(-c2cc(Nc3ccc(OC(F)(F)F)cc3)ncn2)c1', 'Population Fragmented Nuclei (%)', 29),
  ('CNC[C@H](O)c1ccc(O)c(O)c1 [EPINEPHRINE]', 'Population Fragmented Nuclei (%)', 38),
  ('O=C(O)c1cc2ccccc2c(Cc2c(O)c(C(=O)O)cc3ccccc23)c1O [PAMOIC ACID]', 'Population Fragmented Nuclei (%)', 23),
  ('CN1CCN(c2nc3cc(C(F)(F)F)ccc3n3cccc23)CC1.O=C(O)/C=C\C(=O)O.O=C(O)/C=C\C(=O)O', 'Population Fragmented Nuclei (%)', 24),
  ('Cc1ccccc1C(=O)Nc1ccc(C(=O)N2CCCC(N(C)C)c3ccccc32)cc1.Cl (stereo not given)', 'Population Fragmented Nuclei (%)', 22),
  ('CN1CCN2c3ncccc3Cc3ccccc3C2C1 (stereo not given) [MIRTAZAPINE]', 'Population Fragmented Nuclei (%)', 24),
  ('CN(C)c1ccnc2sc3c(=O)n(N4CCCCCC4)cnc3c12', 'Population Fragmented Nuclei (%)', 28),
  ('O=C(NCC(=O)N1CC[C@H](N[C@H]2CC[C@@](O)(c3ccc(-c4ncccn4)cn3)CC2)C1)c1cccc(C(F)(F)F)c1 [PF-4136309]', 'Population Fragmented Nuclei (%)', 25),
  ('CCNC1(C(N)=O)CCN(c2ncnc3c2nc(-c2ccccc2Cl)n3-c2ccc(Cl)cc2)CC1 [OTENABANT]', 'Population Fragmented Nuclei (%)', 25),
  ('COc1cc(C(=O)N(CCCc2ccccc2)Cc2ccc(CC(=O)O)cc2)cc(OC)c1C', 'Population Fragmented Nuclei (%)', 37),
  ('C[C@@H]1C[C@H]2[C@@H]3CCC4=CC(=O)C=C[C@]4(C)[C@@]3(F)[C@@H](O)C[C@]2(C)[C@@]1(O)C(=O)CO [DEXAMETHASONE]', 'Population Fragmented Nuclei (%)', 30),
  ('Cc1ccc(C(C)(O)c2nc3ccccc3s2)c(C)c1 (stereo not given)', 'Population Fragmented Nuclei (%)', 22),
  ('C[C@H](NC(=O)c1c(C(F)F)nn(C)c1Oc1cccc(C(F)(F)F)c1)c1ccc(C(=O)O)cc1 [PALUPIPRANT]', 'Population Fragmented Nuclei (%)', 23),
  ('CCCn1c(=O)c2[nH]c(C3CCCC3)nc2n(CCC)c1=O', 'Population Fragmented Nuclei (%)', 25),
  ('N#Cc1c(N)nc(SCc2csc(-c3ccc(Cl)cc3)n2)c(C#N)c1-c1ccc(OCCO)cc1 [CAPADENOSON]', 'Population Fragmented Nuclei (%)', 30),
  ('CC(=O)NCCc1c(Cc2ccccc2)[nH]c2ccccc12 [LUZINDOLE]', 'Population Fragmented Nuclei (%)', 25),
  ('CCCC(CCC)C(=O)O [VALPROIC ACID]', 'Population Fragmented Nuclei (%)', 20),
  ('CCCN1CCC[C@@H]2Cc3n[nH]cc3C[C@H]21.Cl [QUINPIROLE HYDROCHLORIDE]', 'Population Fragmented Nuclei (%)', 22),
  ('O=C(O)Cc1ccccc1Nc1c(Cl)cccc1Cl [DICLOFENAC]', 'Population Fragmented Nuclei (%)', 25),
  ('Cc1ccc(/C(=C\CN2CCCC2)c2ccccn2)cc1 [TRIPROLIDINE]', 'Population Fragmented Nuclei (%)', 28),
  ('CN(C)CCCc1cc(C(=O)Nc2ccc(-c3ccncc3)cc2)ccc1O.Cl.Cl', 'Population Fragmented Nuclei (%)', 22),
  ('Cc1nc2ccc(Oc3ccc(F)cc3)cc2c(=O)n1C[C@H]1CCCN(C(C)C)C1.Cl', 'Population Fragmented Nuclei (%)', 24),
  ('Oc1c(CN2CCN(c3ccccn3)CC2)cc(Cl)c2cccnc12', 'Population Fragmented Nuclei (%)', 27),
  ('Cc1ccc(F)cc1C(=O)Nc1ccc(C(=O)N2Cc3cccn3Cc3ccccc32)c(Cl)c1 [LIXIVAPTAN]', 'Population Fragmented Nuclei (%)', 30),
  ('O=C1COc2nccc(-c3ccccc3F)c2CN1Cc1cc(C(F)(F)F)cc(C(F)(F)F)c1', 'Population Fragmented Nuclei (%)', 17),
  ('Cl.Clc1ccc2nsnc2c1NC1=NCCN1 [TIZANIDINE HYDROCHLORIDE]', 'Population Fragmented Nuclei (%)', 24),
  ('COc1ccc2c(c1)C(C(=O)N(Cc1ccc(N(C)C)cc1)c1ccc(C(C)C)cc1)CCC2.Cl (stereo not given)', 'Population Fragmented Nuclei (%)', 20),
  ('O=S(=O)(c1ccccc1)c1cnc2c(N3CCNCC3)cccc2c1 [INTEPIRDINE]', 'Population Fragmented Nuclei (%)', 28),
  ('CC(C)(C)c1ccc(S(=O)(=O)Nc2ccc(Cl)cc2C(=O)c2cc[n+]([O-])cc2)cc1 [VERCIRNON]', 'Population Fragmented Nuclei (%)', 27);

Each recorded value in this set is attributed to ChEMBL document CHEMBL5058577.
